Experimental Target: UniProt:O70528
Sequence (O70528 whole entry): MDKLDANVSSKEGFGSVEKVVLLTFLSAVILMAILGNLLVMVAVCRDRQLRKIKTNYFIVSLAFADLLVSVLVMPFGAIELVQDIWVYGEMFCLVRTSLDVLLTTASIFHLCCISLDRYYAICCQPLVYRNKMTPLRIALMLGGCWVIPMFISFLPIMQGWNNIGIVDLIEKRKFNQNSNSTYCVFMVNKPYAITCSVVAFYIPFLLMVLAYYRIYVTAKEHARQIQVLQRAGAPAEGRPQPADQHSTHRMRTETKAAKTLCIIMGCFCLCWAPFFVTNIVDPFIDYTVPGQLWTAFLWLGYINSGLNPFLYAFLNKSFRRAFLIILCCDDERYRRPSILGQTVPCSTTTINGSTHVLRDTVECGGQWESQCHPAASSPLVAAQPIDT
Protocol Summary: The antagonist activity was calculated as the concentration which produced a 50% reduction against 5-hydroxytryptamine 4 receptor in guinea pig ileum. 95% confidence limits are in brackets.
Type: functional, tissue-based
Result Type: pIC50
FYI, pIC50 means -log10 of a concentration in mol per litre.

-- ask In one line, give reported pIC50 of the entry `COc1cc(N)c(Cl)cc1NC(=O)OCCN1CCCCCC1` .
-- reply 6.68

====

Experimental Target: 5-hydroxytryptamine receptor 4 (Rattus norvegicus)
Sequence (Q62758 whole entry): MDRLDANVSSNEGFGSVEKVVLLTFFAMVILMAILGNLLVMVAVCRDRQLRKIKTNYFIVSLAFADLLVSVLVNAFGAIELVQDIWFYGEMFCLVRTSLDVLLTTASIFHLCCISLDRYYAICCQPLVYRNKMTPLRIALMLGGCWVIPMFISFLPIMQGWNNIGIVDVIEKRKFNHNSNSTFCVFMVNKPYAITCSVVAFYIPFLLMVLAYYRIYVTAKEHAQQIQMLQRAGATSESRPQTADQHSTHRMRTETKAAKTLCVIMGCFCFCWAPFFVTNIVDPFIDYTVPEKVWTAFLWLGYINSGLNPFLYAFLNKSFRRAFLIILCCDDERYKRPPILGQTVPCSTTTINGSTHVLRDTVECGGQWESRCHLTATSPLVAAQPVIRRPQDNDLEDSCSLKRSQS
Protocol Summary: Binding affinity at 5-hydroxytryptamine 4 receptor in rat striatal membranes by [3H]GR-113808 displacement.
Format: cell membranes, Striatum, Membrane
Result Type: Ki (µM)
Only the number, expressed in µM, is required.

Known results for molecules:
{"columns": ["Molecule", "Experimental Target", "Ki (µM)"],
 "data": [
  ["CCOc1ccccc1NC(=O)OCCN1CC(C)C[C@@H](C)C1 (single isomer, unassigned)", "5-hydroxytryptamine receptor 4 (Rattus norvegicus)", 0.00116],
  ["COc1ccccc1NC(=O)OCCCN1CCCCC1", "5-hydroxytryptamine receptor 4 (Rattus norvegicus)", 0.081],
  ["COc1ccccc1NC(=O)OCCN1CCCCC1", "5-hydroxytryptamine receptor 4 (Rattus norvegicus)", 0.0089],
  ["COc1ccc(Cl)cc1NC(=O)OCCN1CCCCC1", "5-hydroxytryptamine receptor 4 (Rattus norvegicus)", 0.0042],
  ["O=C(Nc1cccc(Cl)c1)OCCN1CCCCC1", "5-hydroxytryptamine receptor 4 (Rattus norvegicus)", 0.0608]
]}

-- ask Respond only with Ki recorded for `CCOc1ccccc1NC(=O)OCCN1C[C@H](C)C[C@H](C)C1`
-- reply 0.00105

-- ask Recall and state the measured Ki for `O=C(Nc1ccc(Cl)cc1)OCCN1CCCCC1` .
-- reply 0.728

-- ask Give Ki for `COc1cc(N)c(Cl)cc1C(=O)OCCN1C[C@H](C)C[C@H](C)C1`
-- reply 0.00026

-- ask Tell me its Ki given `O=C(Nc1ccccc1)OCCN1CCCCC1` as the entry.
-- reply 0.0317

====

Experimental Target: 5-hydroxytryptamine receptor 4 (Rattus norvegicus)
Protocol Summary: Binding affinity (Ki+/-SEM) against 5-hydroxytryptamine 4 receptor from cheng Prusoff equation by using [3H]GR-113808 in rat striatum
Here the recorded pKi is given for each entry.
Worth noting: pKi values are minus log10 of concentrations stated in mol/L.

Would you please look over these solved cases?
{"columns": ["Compound", "pKi"],
 "data": [
  ["COc1cc(N)c(Cl)cc1NC(=O)OCCN1CCCC(C)C1 (stereo unspecified)", 7.99],
  ["COc1cc(N)c(Cl)cc1NC(=O)OCCN1CCCCC1", 7.41],
  ["COc1cc(N)c(Cl)cc1NC(=O)OCCN1CCCCCC1", 7.84],
  ["COc1cc(N)c(Cl)cc1NC(=O)OCCN1CCCC1", 6.90],
  ["COc1cc(N)c(Cl)cc1NC(=O)OCCN1CC(C)CC(C)C1 (stereo unspecified)", 8.62]
]}

-- ask Query pKi for `CCN(CC)CCOC(=O)Nc1cc(Cl)c(N)cc1OC`
-- reply 6.82

-- ask Check the records and state pKi for `COc1cc(N)c(Cl)cc1NC(=O)OCCN1CCC(C)CC1`
-- reply 7.60

====

Species: Cavia porcellus
Protocol Summary: Agonist activity was assessed as the concentration which gave a 50% increase in the response to electrical stimulation in the guinea pig ileum and is expressed as percent of the maximum 5-HT response = 78%
Assay type: functional
Result Type: EC50
State the value, then name its unit.

-- ask Provide only the value of recorded EC50 for `COc1cc(N)c(Cl)cc1C(=O)OCCN1CCCCC1`
-- reply 4 nM
